- Tested on: RXF 393 renal
- assay-method-text: NCI-60 one-dose screen, 48 h (100 = growth as untreated, 0 = no growth, -100 = all killed)
- conditions-used: 10 µM unless noted
This is part of a sample that, as a whole, favours compounds with a hit. Of some 83,000 tested, about 20% had one in any assay.
parameter: growth (%)
Respond with the bare value in %.

[
  {
    "compound": "NS(=O)(=O)c1ccc(C(=O)NN2C(=O)c3ccccc3C2=O)cc1",
    "growth / %": 120
  },
  {
    "compound": "COc1cc(Cc2cc(OC)c(O)c(OC)c2)cc(OC)c1O",
    "growth / %": 86.3
  },
  {
    "compound": "Cc1ccc(OCCOCCOCCOCCOCCOc2ccc(C)n(O)c2=S)c(=S)n1O",
    "growth / %": 40.6
  },
  {
    "compound": "O=C(Oc1ccc2c(c1)sc1nc(-c3ccccc3)[nH]c(=O)c12)C(F)(F)F",
    "growth / %": 43.8
  },
  {
    "compound": "O=C(Nc1ccc(Nc2ccncc2)cc1)c1ccc(Nc2ccnc3ccc([N+](=O)[O-])cc23)cc1",
    "growth / %": 116
  },
  {
    "compound": "COc1ccc(C2[C@@H](Cl)C(=O)N2c2cc(OC)c(OC)c(OC)c2)cc1Cl (stereo not given in full)",
    "growth / %": -2.33
  }
]

Consider the additional compound presented here.
Would you mind telling me what growth value was observed for `Cc1ccc(NC(=O)c2cc3ccccc3cc2O)c(C)c1` ?
113

###

- System: UACC-257 melanoma
- assay-method-text: NCI-60 one-dose screen, 48 h (100 = growth as untreated, 0 = no growth, -100 = all killed)
- conditions-used: 10 µM unless noted
About 83,000 compounds went through this panel and 20% of them were active in at least one assay; those are over-represented in the sample as a whole.
# growth listing for each entry below
The reply should be a number in %, with the unit left off.

Some entries whose results are on file:
[
  {
    "compound": "CSc1nc2ccc(C)cc2cc1/C=C1/C=C(c2ccccc2)NC1=O",
    "unit-abbreviation": "%",
    "observed-value": 80
  },
  {
    "compound": "C=CCn1cc(-c2nc3ccccc3s2)c2cc(-c3ccc4c5c(cccc35)C(=O)N(CCO)C4=O)ccc21",
    "unit-abbreviation": "%",
    "observed-value": 107
  }
]

What value of growth has been recorded for this entry: CCCCO[C@@H]1C=C2[C@H]3CC(C)(C)C(=O)C[C@]3(C(=O)O[C@@H]3O[C@H](CO[C@@H]4O[C@H](CO)[C@@H](OC5OC(C)C(O)C(O)C5O)[C@H](O)[C@H]4O)[C@@H](O)[C@H](O)[C@H]3O)CC[C@@]2(C)[C@]2(C)CC[C@H]3C(C)(C)C(=O)CC[C@]3(C)[C@@H]12 (stereo partly drawn)
49.1

###

- Test system: HOP-92 NSCLC
- assay-method-text: NCI-60 one-dose screen, 48 h (100 = growth as untreated, 0 = no growth, -100 = all killed)
- conditions-used: 10 µM unless noted
This is part of a sample that, as a whole, favours compounds with a hit. Of some 83,000 tested, about 20% had one in any assay.
Catalogue of growth values
Field format: number, assumed %, no unit text.

As a guide, the following entries are already answered.
[
  {
    "query-smiles": "Cc1ccc2c(c1)sc1nc(-c3c[nH]c4ccccc34)c(Nc3ccccc3)n12",
    "tested-target": "HOP-92 NSCLC",
    "unit-abbreviation": "%",
    "growth": 101
  },
  {
    "query-smiles": "Cc1cccc(N2C(=O)/C(=C/C(Cl)=C/c3ccc([N+](=O)[O-])cc3)SC2=S)c1C",
    "tested-target": "HOP-92 NSCLC",
    "unit-abbreviation": "%",
    "growth": -28.1
  },
  {
    "query-smiles": "C=C(C)[C@@H]1CC[C@]2(C(=O)N3CCNCC3)CC[C@]3(C)[C@H](CC[C@@H]4[C@@](C)(CCC(=O)N5CCNCC5)[C@H](C(=C)C)CC[C@]43C)[C@@H]12",
    "tested-target": "HOP-92 NSCLC",
    "unit-abbreviation": "%",
    "growth": 95.5
  }
]

# next molecule below
Reported growth for `COC(=O)c1c2c(c[n+]([O-])c1C)C(=O)C=C(NCc1ccccc1)C2=O` : what is it?
-74.5

###

- Tested on: PC-3 prostate
- assay-method-text: NCI-60 one-dose screen, 48 h (100 = growth as untreated, 0 = no growth, -100 = all killed)
- conditions-used: 10 µM unless noted
About 83,000 compounds went through this panel and 20% of them were active in at least one assay; those are over-represented in the sample as a whole.
Label key: MET means growth under 80%; NOT MET means growth of 80% or more.

[
  {
    "compound": "CCOC(=O)c1nnn(-c2no[n+]([O-])c2-c2ccc(OC)cc2)c1COc1cccc2cccnc12",
    "discrete-label": "MET"
  }
]

Consider `CN1CCOCCN(C)Cc2ccc3ccc(cc3c2)CN(C)CCOCCN(C)Cc2ccc3ccc(cc3c2)C1` . Does its growth lie strictly below 80%?
MET

// next record `Oc1ccc(-c2nc3ccc4[nH]ncc4c3c3c2CCCC3)c(F)c1`
MET

Param item: `COc1ccc(-c2nc3ccc(C)cc3c3c2c(=O)n(C)c(=O)n3C)cc1OC`
NOT MET

For `CNC(=O)c1cc(Oc2ccc3c(c2)sc2nc(-c4ccc(NC(=O)[C@@H](NC(=O)OC)C(C)C)cc4)cn23)ccn1` then?
MET

One more compound: `Cc1cccc(N=Nc2cccc(C)c2)c1`
NOT MET

// same read-out, input: Nc1cccc(-c2ccc(COc3ccc(CC4SC(=O)NC4=O)cc3)cc2)c1 (stereo not given)
MET

Now consider `O=c1oc2c(cnc3ccccc32)cc1-c1cccc(Cl)c1` .
NOT MET

Moving on to `ClCCn1cnc2c(SCc3ccccc3)ncnc21`
MET

###

- Tested on: SR leukemia
- assay-method-text: NCI-60 one-dose screen, 48 h (100 = growth as untreated, 0 = no growth, -100 = all killed)
- conditions-used: 10 µM unless noted
The panel holds about 83,000 compounds, 20% with a hit somewhere; the sample as a whole holds those more often.
parameter: growth (%)
Write the answer as a number in %, unit excluded.

[
  {
    "compound": "CCN(CC)C(=O)CC1=C(C)/C(=C/c2[nH]c(-c3ccc[nH]3)cc2OC)N=C1C",
    "unit-abbreviation": "%",
    "growth": -30
  }
]

Name the reported growth value associated with the compound CS(=O)/C(C#N)=C\C=C\c1cccc(Cl)c1 (stereo not drawn)
6.39

Next up: `CC(C)NS(=O)(=O)/N=C1\NC(=O)NC1=C(Cl)Cl`
19.7

Would you kindly repeat that for `FC(F)(F)c1[nH]ncc1-c1nc2ccc3[nH]ncc3c2c2c1CCCC2` ?
-16.6

// same read-out, input: CCCCO[C@@H]1C=C2[C@H]3CC(C)(C)C(=O)C[C@]3(C(=O)O[C@@H]3O[C@H](CO[C@@H]4O[C@H](CO)[C@@H](OC5OC(C)C(O)C(O)C5O)[C@H](O)[C@H]4O)[C@@H](O)[C@H](O)[C@H]3O)CC[C@@]2(C)[C@]2(C)CC[C@H]3C(C)(C)C(=O)CC[C@]3(C)[C@@H]12 (stereo partly drawn)
69.9

Next record, please: `CNC(=O)c1cc(Oc2ccc3c(c2)sc2nc(-c4cc(C(F)(F)F)cc(C(F)(F)F)c4)cn23)ccn1`
34

Next compound up: `CN1C(=O)/C(=C/c2ccc(C(=O)Nc3ncc(Cc4cc(Cl)ccc4Cl)s3)cc2)SC1=S`
63.9

Now the same for `COc1cc(OC)c2c(=O)c3c(CC=C(C)C)cc(OC)c(O)c3oc2c1`
53.2

###

- Test system: MCF7 breast
- assay-method-text: NCI-60 one-dose screen, 48 h (100 = growth as untreated, 0 = no growth, -100 = all killed)
- conditions-used: 10 µM unless noted
This is part of a sample that, as a whole, favours compounds with a hit. Of some 83,000 tested, about 20% had one in any assay.
parameter: growth (%)
// note: answer is a bare numeric in %

Known growth results, listed for orientation:
[
  {
    "molecule": "Brc1ccc(Nc2nc(Nc3cnc4ccccc4c3)c3[nH]cnc3n2)cc1",
    "growth [%]": 58
  },
  {
    "molecule": "COc1ccc(/C=N/NC(=O)Cn2c(-c3ccc(S(C)(=O)=O)cc3)nc3ccccc32)cc1",
    "growth [%]": 88.6
  }
]

Please look up its growth: `Cc1ccc(S(=O)(=O)c2nc(-c3ccccc3)oc2SCC(N)=O)cc1`
96

Same question, `COc1ccc(/C=N/Nc2c3ccccc3nc3ccccc23)cc1` this time
81.9

Entry to check: `Cc1ccc(C)c2c1sc1nc(N3CCOCC3)c(C#N)c(=O)n12`
51.5

Next molecule up: CC(C)C1C2=C(NCCN1C(=O)c1ccncc1)C(C)(C)N(Cc1ccccc1)C2=O (stereo not given)
95.5

What would you report for O=C(c1ccc(Br)cc1)C(Br)C(c1ccc(Cl)cc1)C(c1ccccc1)[N+](=O)[O-] (stereo not given) ?
84.5

`N#Cc1c(-c2ccccc2)cc(-c2ccccc2)n(CCCCC(=O)NO)c1=O` , same question.
20.5

Next molecule up: `Clc1ccc2nn3c4ccccc4c(OCCN4CCOCC4)nc3c2c1`
83.4

Same read-out for `O=C1/C(=C/c2cccc(Br)c2)COc2ccc(O)cc21` ?
6.98
